- target: VR1/TRPV1 receptor (Homo sapiens, UniProt Q8NER1)
- Sequence (Q8NER1 whole entry): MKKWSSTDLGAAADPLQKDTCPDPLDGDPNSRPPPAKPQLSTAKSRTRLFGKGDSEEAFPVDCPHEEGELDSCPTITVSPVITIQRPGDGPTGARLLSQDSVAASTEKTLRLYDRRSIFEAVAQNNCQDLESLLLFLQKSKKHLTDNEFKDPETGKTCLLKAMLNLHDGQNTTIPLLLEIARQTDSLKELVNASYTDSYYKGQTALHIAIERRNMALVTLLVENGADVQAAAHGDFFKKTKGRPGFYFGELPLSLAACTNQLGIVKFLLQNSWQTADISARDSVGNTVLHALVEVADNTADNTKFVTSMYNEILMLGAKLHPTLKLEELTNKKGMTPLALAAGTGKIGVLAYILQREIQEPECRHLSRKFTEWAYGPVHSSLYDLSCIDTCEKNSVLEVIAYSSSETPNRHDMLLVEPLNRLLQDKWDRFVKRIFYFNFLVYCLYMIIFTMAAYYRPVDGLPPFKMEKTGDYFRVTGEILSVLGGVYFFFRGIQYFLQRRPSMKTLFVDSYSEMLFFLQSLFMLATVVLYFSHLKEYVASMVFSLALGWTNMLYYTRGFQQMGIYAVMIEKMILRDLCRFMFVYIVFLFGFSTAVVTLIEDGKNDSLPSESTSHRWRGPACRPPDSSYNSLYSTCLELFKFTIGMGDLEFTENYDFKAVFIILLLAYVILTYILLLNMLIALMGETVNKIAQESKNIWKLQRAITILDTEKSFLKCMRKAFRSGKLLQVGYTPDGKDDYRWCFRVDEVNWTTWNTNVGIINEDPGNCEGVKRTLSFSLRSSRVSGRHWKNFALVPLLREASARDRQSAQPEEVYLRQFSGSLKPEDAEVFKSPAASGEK
- test: IC50 (human) after pH stimulus
- Assay type: cell-based
- condition-set: @ 1 μM; ne = no effect; read-out: inhibition in percent, IC50 (human) after pH stimulus
measured-property: inhibition at 1 µM (%)
Unit % implied. Number only.

See these solved cases before continuing.
compound="CC(C(=O)NCc1ccc(C(F)(F)F)nc1N1CCN(c2ccncc2)CC1)c1ccc(NS(C)(=O)=O)c(F)c1 (stereo not shown)" target="VR1/TRPV1 receptor (Homo sapiens, UniProt Q8NER1)" result_unit=% numeric_result=13
compound="CC(C(=O)NCc1cnc(C(F)(F)F)cc1-c1ccccc1)c1ccc(NS(C)(=O)=O)c(F)c1 (stereo not shown)" target="VR1/TRPV1 receptor (Homo sapiens, UniProt Q8NER1)" result_unit=% numeric_result=6
compound="CC1CCN(c2nc(C(C)(C)C)ccc2CNC(=O)C(C)c2ccc(NS(C)(=O)=O)c(F)c2)CC1 (stereo not shown)" target="VR1/TRPV1 receptor (Homo sapiens, UniProt Q8NER1)" result_unit=% numeric_result=79
compound="CCCCCCOc1nc(C(F)(F)F)ccc1CNC(=O)C(C)c1ccc(NS(C)(=O)=O)c(C)c1 (stereo not shown)" target="VR1/TRPV1 receptor (Homo sapiens, UniProt Q8NER1)" result_unit=% numeric_result=67
compound="CC(C(=O)NCc1ccc(C(F)(F)F)nc1-c1ccc2[nH]ccc2c1)c1ccc(NS(C)(=O)=O)c(F)c1 (stereo not shown)" target="VR1/TRPV1 receptor (Homo sapiens, UniProt Q8NER1)" result_unit=% numeric_result=11
compound="CC(C(=O)NCc1ccc(C(F)(F)F)nc1N1CCN(c2ncccc2C(F)(F)F)CC1)c1ccc(NS(C)(=O)=O)c(F)c1 (stereo not shown)" target="VR1/TRPV1 receptor (Homo sapiens, UniProt Q8NER1)" result_unit=% numeric_result=33

Kindly consider the entry below.
Return inhibition at 1 µM (reported value) for this compound: CC(C(=O)NCc1ccc(C(F)(F)F)nc1N1CCN(c2ncccc2Cl)CC1)c1ccc(NS(C)(=O)=O)c(F)c1 (stereo not shown)
69
